Values from patent US20110172153A1

Molecular target: T1, human parathyroid hormone receptor (PTHR) (human, UniProt Q03431 27-593)
T1 construct: Assayed in membranes of HKRK-B7 cells or of transiently transfected COS-7 cells, or on intact HKRK-B7/HKRK-B64/COS-7 cells; RG = co-transfected with negative-dominant Galpha-s; R0 = receptor alone plus GTPgammaS; also called hPTHR; human PTH receptor
T1 sequence: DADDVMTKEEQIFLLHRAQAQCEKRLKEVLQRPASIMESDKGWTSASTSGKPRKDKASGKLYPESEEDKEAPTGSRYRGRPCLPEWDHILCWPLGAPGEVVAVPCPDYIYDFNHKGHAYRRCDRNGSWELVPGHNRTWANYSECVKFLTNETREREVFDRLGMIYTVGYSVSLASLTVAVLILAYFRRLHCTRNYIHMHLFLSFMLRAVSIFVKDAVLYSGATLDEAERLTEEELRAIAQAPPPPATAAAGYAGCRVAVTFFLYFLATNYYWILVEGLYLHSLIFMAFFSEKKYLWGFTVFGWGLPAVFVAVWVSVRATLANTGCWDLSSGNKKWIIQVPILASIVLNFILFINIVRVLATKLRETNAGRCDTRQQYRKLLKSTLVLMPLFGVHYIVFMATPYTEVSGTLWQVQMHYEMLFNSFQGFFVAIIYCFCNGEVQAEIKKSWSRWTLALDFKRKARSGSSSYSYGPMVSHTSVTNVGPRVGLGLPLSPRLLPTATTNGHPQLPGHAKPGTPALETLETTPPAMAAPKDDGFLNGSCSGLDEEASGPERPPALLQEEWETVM
Test: screen, binding to human PIR R0 relative to parent PTHrP(1-28)NH; footnote not given
Ends that are not written are not given here.
Exercise: state measured human PIR R0 (% parent) for each of the binders provided.
Please answer using the number first and the unit second.

See these solved cases before continuing.
AVSEHQLLHDKGKSIQDARRRNFLHALI-NH2 [A18,26,N22-PTHrP(1-28)NH]: 136 % parent
AVSEHQLLHDKGKSIQDARRRLFLHKLI-NH2 [A18,L22,K26-PTHrP(1-28)NH]: 160 % parent
AVSEHQLLHDKGKSIQDERRRWFLHALI-NH2 [E18,W22,A26-PTHrP(1-28)NH]: 18.8 % parent
AVSEHQLLHDKGKSIQDERRRSFLHALI-NH2 [E18,S22,A26-PTHrP(1-28)NH]: 31.9 % parent
AVSEHQLLHDKGKSIQDARRRLFLHALI-NH2 [A18,26,L22-PTHrP(1-28)NH]: 133 % parent

// for each binder in input: emit human PIR R0 (% parent)
1. AVSEHQLLHDKGKSIQDERRRNFLHKLI-NH2 [E18,N22,K26-PTHrP(1-28)NH]
2. AVSEHQLLHDKGKSIQDERRRKFLHALI-NH2 [E18,K22,A26-PTHrP(1-28)NH]
3. AVSEHQLLHDKGKSIQDARRRSFLHALI-NH2 [A18,26,S22-PTHrP(1-28)NH]
4. AVSEHQLLHDKGKSIQDERRRLFLHKLI-NH2 [E18,L22,K26-PTHrP(1-28)NH]

Result:
84.4 % parent
106 % parent
133 % parent
64.4 % parent
